B1: glmS ribozyme (parent)
chain: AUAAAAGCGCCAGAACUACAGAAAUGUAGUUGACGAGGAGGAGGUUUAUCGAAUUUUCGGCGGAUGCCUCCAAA

- Variants of: B1
- PROCEDURE DETAILS: kcat; higher = faster cleavage; RNA array
- CONDITION: with glucosamine-6-phosphate
Variants at the floor of the assay were thinned out.
READOUT NAME: kcat (s⁻¹)

> print(dat)
                             sequence.string  observed
 1  AUAAAAGCGCCAGAACUACAGAAAUGUAGUUGACGAGGAGGAGGUUUAUCGAAUUUUCGGCGGGUGCCUCGAAA [A64G C71G]  0.000386
 2  AUAAAAGCGCCAGAACUACAGAAAUGUAGUUGACGAGGAGGAGGUUUAUCGAGUUUUAGGCGGAUGCCUCCAAA [A53G C58A]  0.000622
 3  AUAAAAGCGCCAGAACUACAGAAAUGUAGUUGACGAGGAGGAGGUUUAUCGAUUUUUCAGCGGAUGCCUCCAAA [A53U G59A]  4.83e-05
 4  AUAAAAGCGCCUGAAAUACAGAAAUGUAGUUGUCGCGAAGGAGGUUUAUCGAAUUUUCGGCAGAUGCCACUAAA [A12U C16A A33U A36C G38A G62A U69A C71U]  2.12e-05
 5  AUAAAAGCGCCAGAACUACAGAAAUGUAGUUGACGAGGAGGAGGUUUAGCGAAUUUUCGGCGGAGGCCUCCAAA [U49G U65G]    0.0002
 6  AUAAAAGCGCCAGAACUACAGAAAUGUAGUUGACGAGGAGGAGGUUUAUUGAAUUUUCGGCGGAUGCCUUCAAA [C50U C70U]  4.57e-05
 7  AUAAAAGCGCCAGUACUACAGAAAUGUAGUUGACGAGGACGAGGUUUAUCGAAUUUUCGGCGGAUGCCUCCAAA [A14U G40C]  0.000633
 8  AUAAAAGCGCCAGAACUACAGAAAUGUAGUUGACGAGGAGGAGGUUUAUCGAAUUUUCGGCGGAAUCCUCCAAA [U65A G66U]   0.00046
 9  AUAAAAGCGCCAGAACUACAGAAAUGUAGCUGACGAGGAGGAGGUUUAUCGAAUUUUCGGCGGAUGGAUCCAAA [U30C C67G C68A]  1.14e-05
10  AUAAAAGCGCCAGAACUACAGAAAUGUAGUUGACGAGGAGUAGGUUUAUCGAAUUUUCGGCGGGUGCCUCCAAA [G41U A64G]  0.000821
11  AUAAAAGCGCCAGAACUACAGAAAUGUAGUUGACGAGGAGGGGGUUUAUAGAAUUUUCGGCGGAUGCCUCCAAA [A42G C50A]  4.52e-05
